System: SK-BR-3
protocol_description: Inhibition of cell proliferation, SK-BR-3
Type: cell-based
condition_context: Homo sapiens, breast, 72 h, methylene blue or CellTiter-Glo
pIC50: −log10 of the molar value.
endpoint: pIC50

"C[C@@H](Oc1cc(-n2cnc3cc(-c4cnn(C)c4)ccc32)sc1C(N)=O)c1cccc(OC2CCN(C)CC2)c1Cl" yielded pIC50 of > 6.30

These data points were gathered from patent US20100075960A1.
